Listing of recorded D. immitis iPGM Max Inhibition by entry.
tested on: D. immitis iPGM; format: biochemical, Dirofilaria immitis
Where a SMILES comes first, the peptide text is derived from it. Bridges are numbered along the chain shown (N, C = ends). [ ]: non-standard residue; d: D form.
# respond with the number and nothing more

Compound	Study system	Test result
CC[C@H](C)[C@@H]1NC(=O)[C@H](CCCNC(=N)N)NC(=O)[C@H](Cc2ccccc2)NC(=O)[C@@H]2CCCN2C(=O)[C@H](CC(N)=O)NC(=O)[C@H](C)NC(=O)[C@H](CC(C)C)NC(=O)[C@H]([C@@H](C)O)NC(=O)[C@H]([C@@H](C)O)NC(=O)[C@H](Cc2ccc(O)cc2)NC(=O)CSC[C@@H](C(=O)NCC(N)=O)NC(=O)[C@H](Cc2c[nH]cn2)NC(=O)[C@H](CC(C)C)NC1=O [Ce-4] ({CH2CO}-YTTLANPFRILHCG-NH2; thioether N-13)	D. immitis iPGM	−22.1

In: Any idea what D. immitis iPGM Max Inhibition was measured for CC[C@H](C)[C@@H]1NC(=O)[C@H](CCC(=O)O)NC(=O)[C@@H]2CCCN2C(=O)[C@H](C)NC(=O)[C@H](CC(N)=O)NC(=O)[C@@H]2CCCN2C(=O)[C@H](Cc2c[nH]c3ccccc23)NC(=O)[C@H](CO)NC(=O)[C@@H](Cc2ccc(O)cc2)NC(=O)CSC[C@@H](C(=O)N[C@@H](CS)C(=O)NCC(N)=O)NC(=O)[C@H](CCCCN)NC(=O)[C@H](Cc2c[nH]c3ccccc23)NC1=O [Bm-1] ({CH2CO}-[dY]SWPNAPEIWKCCG-NH2; thioether N-12) ?
Out: −85.9

In: Looking for the measured D. immitis iPGM Max Inhibition of C[C@@H](O)[C@H](NC(=O)[C@H](CO)NC(=O)[C@@H]1CSCC(=O)N[C@H](Cc2ccc(O)cc2)C(=O)N2CCC[C@H]2C(=O)N[C@@H](CCC(=O)O)C(=O)N[C@@H](Cc2c[nH]c3ccccc23)C(=O)N2CCC[C@H]2C(=O)N[C@@H](CC(N)=O)C(=O)N1)C(=O)N[C@@H](CS)C(=O)NCC(N)=O [Bm-6] ({CH2CO}-[dY]PEWPNCSTCG-NH2; thioether N-7) , can you help?
Out: −90.2

In: State the recorded D. immitis iPGM Max Inhibition for this entry: CC(C)[C@@H]1NC(=O)[C@H](C)NC(=O)[C@@H](Cc2ccc(O)cc2)NC(=O)CSC[C@@H](C(=O)N[C@@H](CCCNC(=N)N)C(=O)N[C@H](C(=O)N[C@@H](CS)C(=O)NCC(N)=O)[C@@H](C)O)NC(=O)[C@H](CC(N)=O)NC(=O)[C@@H]2CCCN2C(=O)[C@H](Cc2c[nH]c3ccccc23)NC1=O [Bm-7] ({CH2CO}-[dY]AVWPNCRTCG-NH2; thioether N-7)
Out: −83.1

* * *

molecular target: B. malayi iPGM (Brugia malayi, UniProt Q4VWF8); assay: biochemical; conditions: read-out: B. malayi iPGM Max Inhibition
Sequence (Q4VWF8 whole entry, looked up): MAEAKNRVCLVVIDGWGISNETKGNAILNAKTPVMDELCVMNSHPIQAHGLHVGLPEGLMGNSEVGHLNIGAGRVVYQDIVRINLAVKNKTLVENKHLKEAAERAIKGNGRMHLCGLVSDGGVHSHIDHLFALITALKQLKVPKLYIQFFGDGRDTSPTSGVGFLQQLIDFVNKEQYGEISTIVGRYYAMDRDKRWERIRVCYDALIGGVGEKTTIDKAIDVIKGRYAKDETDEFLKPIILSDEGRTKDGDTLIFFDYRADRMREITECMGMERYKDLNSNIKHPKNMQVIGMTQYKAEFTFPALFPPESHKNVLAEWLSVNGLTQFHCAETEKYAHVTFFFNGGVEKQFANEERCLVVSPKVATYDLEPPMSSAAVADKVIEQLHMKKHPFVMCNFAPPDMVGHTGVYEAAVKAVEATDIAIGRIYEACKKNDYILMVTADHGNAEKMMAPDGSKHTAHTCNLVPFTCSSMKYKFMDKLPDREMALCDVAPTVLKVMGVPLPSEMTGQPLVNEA
Where a SMILES comes first, the peptide text is derived from it. Bridges are numbered along the chain shown (N, C = ends). [ ]: non-standard residue; d: D form.
Below is a list of entries, each paired with its recorded Emax value.
Write the value in % as a bare number.

These solved cases illustrate the format of a correct answer.
Molecule	Result unit	Test result
CC(C)C[C@H](NC(=O)[C@H](Cc1ccc(O)cc1)NC(=O)[C@@H]1CSCC(=O)N[C@H](Cc2ccc(O)cc2)C(=O)N[C@@H](CC(=O)O)C(=O)N[C@@H](Cc2ccc(O)cc2)C(=O)N2CCC[C@H]2C(=O)NCC(=O)N[C@@H](CC(=O)O)C(=O)N[C@@H](Cc2ccc(O)cc2)C(=O)N1)C(=O)N[C@@H](Cc1ccc(O)cc1)C(=O)NCC(=O)N[C@H](C(=O)N[C@@H](CS)C(N)=O)[C@@H](C)O [Ce-2a]	%	99.2
CC(=O)N[C@H](Cc1ccc(O)cc1)C(=O)N[C@@H](CC(=O)O)C(=O)N[C@@H](Cc1ccc(O)cc1)C(=O)N1CCC[C@H]1C(=O)NCC(=O)N[C@@H](CC(=O)O)C(=O)N[C@@H](Cc1ccc(O)cc1)C(=O)N[C@@H](CO)C(=O)N[C@@H](Cc1ccc(O)cc1)C(=O)N[C@@H](CC(C)C)C(=O)N[C@@H](Cc1ccc(O)cc1)C(=O)NCC(=O)N[C@H](C(=O)N[C@@H](CS)C(=O)NCC(N)=O)[C@@H](C)O [Ce-L2] (Ac-[dY]DYPGDYSYLYGTCG-NH2)	%	48.2

Kindly review the next molecule as well.
In: Can you look up the measured Emax of CC(C)C[C@H](NC(=O)[C@H](Cc1ccc(O)cc1)NC(=O)[C@@H]1CSCC(=O)N[C@H](Cc2ccc(O)cc2)C(=O)N[C@@H](CC(=O)O)C(=O)N[C@@H](Cc2ccc(O)cc2)C(=O)N2CCC[C@H]2C(=O)NCC(=O)N[C@@H](CC(=O)O)C(=O)N[C@@H](Cc2ccc(O)cc2)C(=O)N1)C(N)=O [Ce-2e] ({CH2CO}-[dY]DYPGDYCYL-NH2; thioether N-8) for me?
Out: 82.7

Numbers sourced from patent US20200399318A1.
